Entries and their measured activity change, negative = inhibition follow.
- runDescription: antifungal activity, alamar blue, dry powder, counter-screen for C. neoformans cell wall antifungals, dose response (AID 743128)
- conditionSummary: C. neoformans growth, alamar blue, 24 h; at 35 µM (top of the series)
measuredMetric: activity change, negative = inhibition (%)

• CCOC(=O)c1c(-c2ccc(F)cc2)csc1NC(=O)CN1CCN(C)CC1 = -11.2
• Cc1cccc(OCCn2c(=S)[nH]c3cc(C(F)(F)F)ccc32)c1 = 8.48
• CCOC(=O)c1c(-c2ccc(OC)cc2)csc1NC(=O)CN(C)CC(=O)N(C)C = -14.4
• c1ccc(OCCn2cnc3ccccc32)cc1 = -10.7
• CCOC(=O)c1c(NC(=O)CNCCN(C)C)sc(C)c1-c1ccccc1 = -16.3
